- measurement-target: Conus γ-glutamyl carboxylase (Conus radiatus venom duct microsomes)
- Assay type: biochemical
- condition-context: read-out: apparent IC50
pIC50: −log10 of the molar value.
measure-name: pIC50

{"polymer-sequence": "GKDRLTQMKRILKQRGNKAR [Pro (-20 to -1)]", "measurement-target": "Conus γ-glutamyl carboxylase (Conus radiatus venom duct microsomes)", "endpoint-value": 3.31}
